Listing of recorded MIC by entry.
System: Staphylococcus epidermidis
Experiment: Antimicrobial activity against extended spectrum beta-lactamases-producing methicillin-sensitive Staphylococcus epidermidis 10-11 after 18-24 hrs by two-fold serial dilution method
Assay type: functional
// units = µg/mL; emit number, no label

Query: Returns the measured MIC for the input compound. Input: COc1cccc(CO/N=C2\CN(c3nc4c(cc3F)c(=O)c(C(=O)O)cn4C3CC3)CC2CN)c1OC.CS(=O)(=O)O (racemic)
Response: 0.25

Query: Fill in: MIC of COc1cc(F)c(CO/N=C2\CN(c3nc4c(cc3F)c(=O)c(C(=O)O)cn4C3CC3)CC2CN)cc1OC.CS(=O)(=O)O (racemic) is ___
Response: 1

---
Query: Which MIC is reported for this compound? COc1cc(CO/N=C2\CN(c3nc4c(cc3F)c(=O)c(C(=O)O)cn4C3CC3)CC2CN)cc(Cl)c1OC.CS(=O)(=O)O (racemic)
Response: 2

Query: Could you share which MIC value was measured for COc1ccc(CO/N=C2\CN(c3nc4c(cc3F)c(=O)c(C(=O)O)cn4C3CC3)CC2CN)c(OC)c1OC.CS(=O)(=O)O (racemic) ?
Response: 2
